// reported IC50 for each item listed
target: rh beta tryptase (Homo sapiens, UniProt Q15661); construct: purchased Promega; assay: tryptase inhibition test (cleavage of N-p-tosyl-Gly-Pro-Lys-para-nitroaniline, p-nitroaniline measured at 405 nm); format: biochemical; details: Tris HCl buffer pH 7.4 with calcium and heparin; substrate 0.6 mM; 5 minutes' pre-incubation, 5 minutes incubation at 37° C.
Sequence (Q15661 31-275): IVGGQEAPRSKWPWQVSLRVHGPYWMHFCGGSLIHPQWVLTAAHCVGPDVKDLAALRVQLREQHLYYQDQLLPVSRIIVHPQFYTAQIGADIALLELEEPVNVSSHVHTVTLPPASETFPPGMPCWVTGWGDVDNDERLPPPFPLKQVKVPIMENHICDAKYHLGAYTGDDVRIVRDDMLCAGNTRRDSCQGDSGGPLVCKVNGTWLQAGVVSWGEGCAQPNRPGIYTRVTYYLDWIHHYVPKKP
Where a name gives a salt, the structure may show the parent alone.
Give just the numeric value; nM need not be written.

[[record]]
compound = "Cn1c(CCc2ccc(C(=N)N)cc2)nc2cc(N(Cc3cccc4ccccc34)C(=O)CNCc3ccc(N)cc3)ccc21 [Example 23, trihydrochloride]"
numeric_value = 7


Query block: For the compound CN(CC(=O)N(Cc1cccc2ccccc12)c1ccc2c(c1)nc(CCc1ccc(C(=N)N)cc1)n2C)Cc1ccccc1 [Example 63, dihydrochloride] , what IC50 is on record?
Result block: 28

Query block: For the compound `Cn1c(CCc2ccc(C(=N)N)cc2)nc2cc(N(Cc3cccc4ccccc34)C(=O)CCc3ccccn3)ccc21` , what IC50 is on record?
Result block: 38

Query block: For the compound `CN(C)CCCC(=O)N(Cc1cccc2ccccc12)c1ccc2c(c1)nc(CCc1ccc(C(=N)N)cc1)n2C` , what IC50 is on record?
Result block: 38

Query block: For the compound `Cn1c(CCc2ccc(C(=N)N)cc2)nc2cc(N(Cc3cccc4ccccc34)C(=O)CNCc3cccc(N)c3)ccc21` , what IC50 is on record?
Result block: 10

Query block: For the compound `Cn1c(CCc2ccc(C(=N)N)cc2)nc2cc(N(Cc3cccc4ccccc34)C(=O)CN3CCCCC3)ccc21` , what IC50 is on record?
Result block: 63.1

Query block: For the compound Cn1c(CCc2ccc(C(=N)N)cc2)nc2cc(N(Cc3ccc4ccccc4c3)C(=O)CCc3ccc(C(=N)N)cc3)ccc21 [Example 11] , what IC50 is on record?
Result block: 15

Data provenance: patent US6407130B1
